- tgt: Tyrosine-protein kinase JAK2 (Homo sapiens) (UniProt O60674)
- Sequence (O60674 whole entry): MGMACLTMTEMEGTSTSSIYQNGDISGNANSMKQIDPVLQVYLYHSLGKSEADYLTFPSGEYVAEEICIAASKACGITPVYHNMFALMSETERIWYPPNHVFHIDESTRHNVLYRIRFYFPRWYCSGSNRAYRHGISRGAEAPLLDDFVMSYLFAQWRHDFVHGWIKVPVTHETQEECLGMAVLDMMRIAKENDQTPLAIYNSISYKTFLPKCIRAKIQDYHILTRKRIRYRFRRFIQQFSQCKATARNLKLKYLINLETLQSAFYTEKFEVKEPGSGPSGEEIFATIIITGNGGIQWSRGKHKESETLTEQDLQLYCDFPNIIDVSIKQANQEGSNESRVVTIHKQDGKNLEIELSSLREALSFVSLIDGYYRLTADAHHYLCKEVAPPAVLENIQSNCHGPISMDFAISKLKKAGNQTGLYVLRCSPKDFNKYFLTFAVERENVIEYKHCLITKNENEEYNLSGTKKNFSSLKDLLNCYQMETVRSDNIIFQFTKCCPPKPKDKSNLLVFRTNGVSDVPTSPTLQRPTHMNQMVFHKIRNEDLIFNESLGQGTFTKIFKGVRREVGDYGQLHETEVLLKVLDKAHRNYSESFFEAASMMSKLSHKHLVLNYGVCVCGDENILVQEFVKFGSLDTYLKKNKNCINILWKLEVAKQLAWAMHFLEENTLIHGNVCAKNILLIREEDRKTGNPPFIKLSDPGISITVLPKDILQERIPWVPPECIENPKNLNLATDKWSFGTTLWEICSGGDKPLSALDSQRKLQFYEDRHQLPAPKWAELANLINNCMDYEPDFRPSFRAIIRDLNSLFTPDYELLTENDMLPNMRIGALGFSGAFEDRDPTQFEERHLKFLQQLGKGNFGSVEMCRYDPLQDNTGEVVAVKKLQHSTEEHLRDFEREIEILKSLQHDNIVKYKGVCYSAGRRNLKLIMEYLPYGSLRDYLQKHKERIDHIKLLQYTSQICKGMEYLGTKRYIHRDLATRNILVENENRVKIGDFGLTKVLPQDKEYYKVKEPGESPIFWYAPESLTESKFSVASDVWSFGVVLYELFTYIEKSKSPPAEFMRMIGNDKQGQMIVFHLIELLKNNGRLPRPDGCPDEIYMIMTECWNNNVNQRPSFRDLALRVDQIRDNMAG
- condition-info: at 1 µM
measured-parameter: residual activity (%)

[
  {
    "mol": "Nc1ncnc2c1cnn2-c1ccccc1",
    "measured-parameter": "residual activity",
    "assay-result": 126
  },
  {
    "mol": "NC(=O)Nc1sc(-c2ccc(F)cc2)cc1C(N)=O",
    "measured-parameter": "residual activity",
    "assay-result": 4
  },
  {
    "mol": "O=C1Cc2c([nH]c3ccc(Br)cc23)-c2ccccc2N1",
    "measured-parameter": "residual activity",
    "assay-result": 100
  },
  {
    "mol": "Cn1c2ccccc2c2c3c(c4c5ccccc5n(CCC#N)c4c21)CNC3=O",
    "measured-parameter": "residual activity",
    "assay-result": 4
  },
  {
    "mol": "COc1cc2ncnc(Nc3cccc(Cl)c3)c2cc1OC",
    "measured-parameter": "residual activity",
    "assay-result": 123
  },
  {
    "mol": "O=C(c1ccccc1)c1ccc(N2CCOCC2)cc1O",
    "measured-parameter": "residual activity",
    "assay-result": 92
  },
  {
    "mol": "O=C(Nc1ccc(Cl)cc1)c1ccccc1NCc1ccncc1",
    "measured-parameter": "residual activity",
    "assay-result": 129
  },
  {
    "mol": "O=C(CCCc1ccc(-c2ccccc2F)cc1)Nc1ccc(O)cc1",
    "measured-parameter": "residual activity",
    "assay-result": 108
  },
  {
    "mol": "Nc1n[nH]c2nc3ccccc3nc12",
    "measured-parameter": "residual activity",
    "assay-result": 98
  },
  {
    "mol": "CC(C)(C)c1nc2c3ccc(F)cc3c3c(=O)[nH]ccc3c2[nH]1",
    "measured-parameter": "residual activity",
    "assay-result": -1
  },
  {
    "mol": "CC(C)(C)n1nc(Cc2cccc3ccccc23)c2c(N)ncnc21",
    "measured-parameter": "residual activity",
    "assay-result": 101
  }
]

* * *

- tgt: Ephrin type-A receptor 1 (Homo sapiens)
- condition-info: at 10 µM
Outcome label depends on residual activity relative to 40%: at/above gives criterion met, below gives criterion not met.

[
  {
    "mol": "O=C1C(Cl)=C(N2C(=O)CCC2=O)C(=O)c2ccccc21",
    "group": "criterion met"
  },
  {
    "mol": "COc1ccc2c(c1)c(C1=C(c3c[nH]c4ccccc34)C(=O)NC1=O)cn2CCCN(C)C",
    "group": "criterion met"
  },
  {
    "mol": "NCCNc1ncc(C(N)=O)c(Nc2cccc(C(F)(F)F)c2)n1",
    "group": "criterion met"
  },
  {
    "mol": "CCCCc1c(-c2ccc(OC)cc2)[nH]c2nccnc12",
    "group": "criterion not met"
  },
  {
    "mol": "CC(C)[C@H](CO)Nc1nc(Nc2cc(N)cc(Cl)c2)c2ncn(C(C)C)c2n1",
    "group": "criterion not met"
  },
  {
    "mol": "O=C(c1cc2cc(O)ccc2[nH]1)c1cc2cc(O)ccc2[nH]1",
    "group": "criterion met"
  }
]

* * *

# residual activity per entry
- tgt: Tyrosine-protein kinase HCK (Homo sapiens) (UniProt P08631)
- Sequence (P08631 2-526 limits assumed): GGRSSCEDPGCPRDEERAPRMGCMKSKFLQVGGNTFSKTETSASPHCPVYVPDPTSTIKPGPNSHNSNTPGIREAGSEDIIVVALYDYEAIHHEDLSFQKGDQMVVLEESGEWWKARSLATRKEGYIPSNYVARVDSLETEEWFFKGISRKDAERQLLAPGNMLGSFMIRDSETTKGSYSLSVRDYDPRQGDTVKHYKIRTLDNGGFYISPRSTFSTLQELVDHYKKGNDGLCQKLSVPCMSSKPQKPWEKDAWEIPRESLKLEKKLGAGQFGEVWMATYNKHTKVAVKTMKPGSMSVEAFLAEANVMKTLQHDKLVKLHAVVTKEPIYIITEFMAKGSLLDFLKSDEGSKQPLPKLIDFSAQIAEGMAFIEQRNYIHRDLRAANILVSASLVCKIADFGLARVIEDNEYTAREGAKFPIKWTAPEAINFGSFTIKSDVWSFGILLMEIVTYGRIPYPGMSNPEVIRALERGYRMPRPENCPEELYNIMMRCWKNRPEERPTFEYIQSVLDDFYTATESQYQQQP
- condition-info: at 10 µM
measured-parameter: residual activity (%)

[
  {
    "mol": "CCCCc1c(-c2ccc(O)cc2)[nH]c2nccnc12",
    "result-units": "%",
    "assay-result": 64
  },
  {
    "mol": "O=C1NC(=O)c2c1c1c3ccccc3[nH]c1n1cncc21",
    "result-units": "%",
    "assay-result": 35
  },
  {
    "mol": "COc1cc2nccc(Oc3ccc(NC(=O)Nc4cc(C)on4)c(Cl)c3)c2cc1OC",
    "result-units": "%",
    "assay-result": 6
  },
  {
    "mol": "CCCC(=O)Oc1ccc2[nH]c(C(=O)c3cc4ccccc4[nH]3)cc2c1",
    "result-units": "%",
    "assay-result": 94
  },
  {
    "mol": "Cc1cc(C)c(/C=C2\\C(=O)Nc3ccccc32)[nH]1",
    "result-units": "%",
    "assay-result": 40
  },
  {
    "mol": "O=C(c1cc2cc(O)ccc2[nH]1)c1cc2cc(O)ccc2[nH]1",
    "result-units": "%",
    "assay-result": 3
  },
  {
    "mol": "Nc1n[nH]c2nc3ccccc3nc12",
    "result-units": "%",
    "assay-result": 88
  },
  {
    "mol": "Nc1ncnc2c1c(-c1ccc(Oc3ccccc3)cc1)cn2C1CCCC1",
    "result-units": "%",
    "assay-result": -2
  },
  {
    "mol": "O=C(c1ccccc1)c1ccc(N2CCOCC2)cc1O",
    "result-units": "%",
    "assay-result": 93
  },
  {
    "mol": "CN(C)S(=O)(=O)c1ccc2c(c1)/C(=C/c1cc3c([nH]1)CCCC3)C(=O)N2",
    "result-units": "%",
    "assay-result": 74
  },
  {
    "mol": "O=C1Nc2ccc(Cl)cc2/C1=C/c1cc(Cl)c(O)c(Cl)c1",
    "result-units": "%",
    "assay-result": 53
  },
  {
    "mol": "O=C1NC(=O)C(c2cn(CCCO)c3ncccc23)=C1c1cnccn1",
    "result-units": "%",
    "assay-result": 96
  }
]
